Where these numbers come from: patent CN105348390A

Measured koff of individual entries
- system: T1, 重组huPCSK9-his (人PCSK9, C端His-tag) (human, UniProt Q8NBP7 54-692)
- T1 construct: Expressed in HEK293 cells; not shown: C-terminal His-tag
- T1 sequence (Q8NBP7 other isoform, or with tags, fused parts or gaps): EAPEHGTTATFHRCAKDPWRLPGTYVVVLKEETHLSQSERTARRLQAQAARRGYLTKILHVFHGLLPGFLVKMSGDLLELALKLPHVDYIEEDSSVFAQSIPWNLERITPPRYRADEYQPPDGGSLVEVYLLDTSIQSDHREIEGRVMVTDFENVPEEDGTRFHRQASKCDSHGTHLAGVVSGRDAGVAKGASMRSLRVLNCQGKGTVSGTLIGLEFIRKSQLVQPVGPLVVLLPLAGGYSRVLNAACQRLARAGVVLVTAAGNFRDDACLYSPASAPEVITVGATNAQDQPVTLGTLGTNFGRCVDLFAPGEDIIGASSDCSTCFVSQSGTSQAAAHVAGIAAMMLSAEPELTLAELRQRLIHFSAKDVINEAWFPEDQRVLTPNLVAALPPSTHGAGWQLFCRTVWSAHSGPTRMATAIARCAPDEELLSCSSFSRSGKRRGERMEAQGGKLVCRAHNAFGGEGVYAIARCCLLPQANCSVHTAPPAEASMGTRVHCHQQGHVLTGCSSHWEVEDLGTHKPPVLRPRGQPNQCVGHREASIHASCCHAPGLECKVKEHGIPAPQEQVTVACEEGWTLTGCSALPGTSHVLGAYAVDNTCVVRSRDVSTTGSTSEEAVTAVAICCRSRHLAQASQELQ
- experimentNotes: SPR, Biacore 3000, antibody captured by anti-human Fc on CM5, huPCSK9 as analyte
Answer format: numeric, s⁻¹ implied, no suffix.

Please review the following examples before continuing.
H7B12-IgG4 (antibody, V domains shown) VH: QVQLVQSGAEVKKPGASVKVSCKASGYTLNNYGISWVRQAPGQGLEWMGWVSFYNGNTNYAQKLQGRGTMTTDPSTSTAYMELRSLRSDDTAVYYCARGYVMDIWGQGTTVTVSS VL: DIQMTQSPSSLSASVGDRVTITCRASQSINNWLDWYQQKPGKAPKLLIYAASTRPSGVPSRFSGSGSGTDFTLTISSLQPEDFATYYCQQDQDIPPTFGQGTKVEIKR: 3.26e-05
H4H4-IgG4 (antibody, V domains shown) VH: QVQLVQSGAEVKKPGASVKVSCKASGYAIYNYGISWVRQAPGQGLEWMGWVSFYNGNTNYAQKLQGRGTMTTDPSTSTAYMELRSLRSDDTAVYYCARGYVMDIWGQGTTVTVSS VL: DIQMTQSPSSLSASVGDRVTITCRASQSINNWLDWYQQKPGKAPKLLIYAASTRPSGVPSRFSGSGSGTDFTLTISSLQPEDFATYYCQQDQDIPPTFGQGTKVEIKR: 4.7e-05

What the record says about H8A7-IgG4 (antibody, V domains shown) VH: QVQLVQSGAEVKKPGASVKVSCKASGYAIYNYGISWVRQAPGQGLEWMGWVSFYNGNTNYAQKLQGRGTMTTDPSTSTAYMELRSLRSDDTAVYYCARGYVMDFWGQGTTVTVSS VL: DIQMTQSPSSLSASVGDRVTITCRASQSINNWLDWYQQKPGKAPKLLIYAASTRPSGVPSRFSGSGSGTDFTLTISSLQPEDFATYYCQQDQDIPPTFGQGTKVEIKR : koff is 4.83e-05

What the record says about H8F4-IgG4 (antibody, V domains shown) VH: QVQLVQSGAEVKKPGASVKVSCKASGYALYNYGISWVRQAPGQGLEWMGWVSFYNGNTNYAQKLQGRGTMTTDPSTSTAYMELRSLRSDDTAVYYCARGYVMDIWGQGTTVTVSS VL: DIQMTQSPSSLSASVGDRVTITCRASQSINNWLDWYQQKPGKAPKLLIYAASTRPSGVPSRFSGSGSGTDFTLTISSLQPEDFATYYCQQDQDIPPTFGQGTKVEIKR : koff is 4.48e-05
